- protocol-description: qHTS assay for small molecule agonists of the p53 signaling pathway (AID 651631); further: nearly all actives have a fitted effect of over 15% in size
- assay-setup: HCT-116 p53RE-bla reporter, beta-lactamase FRET ratio, 16 h; series mostly up to 73.3 µM
Results filed as inconclusive are left out. Activity calls are given as the source filed them. The call rests on the fitted dose curve.
Pick one: 1.0 for active, 0.0 for inactive

* O=C(O)CNC(=O)c1ccc(CO)o1 | 0.0
* CCCc1ncc(C[n+]2ccccc2C)c(N)n1 | 0.0
* Cc1ccc(C(=O)c2ccccc2)cc1 | 0.0
* Clc1cc(Cl)c(Cl)nc1Cl | 0.0
* CC(C)NNC(=O)c1ccncc1 | 0.0

Next up:
Incoming: Could you kindly confirm the outcome this assay logged for CCC(=O)OCc1ccccc1 ?
Outgoing: 0.0

---

- test-target: Cytochrome P450 2C9 (Homo sapiens)
- protocol-description: Cytochrome P450 Family 2 Subfamily C Member 9 (CYP2C9) small molecule antagonists: luciferase reporter qHTS assay (AID 1671198); further: nearly all actives have a fitted effect of over 50% in size
- assay-setup: P450-Glo CYP2C9 enzyme assay, luciferin luminescence; series mostly up to 115 µM
Records with an inconclusive call do not appear. Active and inactive are the calls of the source. The call rests on the fitted dose curve; in most records, active means well fitted inhibition curve with a large enough effect in the repeat runs; inconclusive means weak or mixed curves; inactive means no such curve, though single readings can be large or run the other way.
Pick one: active, inactive

Consider the worked cases shown below.
* OCCCCCO | inactive
* CC(C)(C)C(=O)c1ccccc1 | inactive
* CCCCOCCOC(=O)CCCCCCCCC(=O)OCCOCCCC | active

Incoming: Could you kindly confirm the outcome this assay logged for O=Cc1cccc(Br)c1 ?
Outgoing: active

Incoming: Could you kindly confirm the outcome this assay logged for C=COC(=O)C(C)(CC)CCC(C)C (stereo unspecified) ?
Outgoing: inactive

---

- test-target: Cytochrome P450 1A2 (Homo sapiens) (UniProt P05177)
- Sequence (P05177 whole entry, looked up): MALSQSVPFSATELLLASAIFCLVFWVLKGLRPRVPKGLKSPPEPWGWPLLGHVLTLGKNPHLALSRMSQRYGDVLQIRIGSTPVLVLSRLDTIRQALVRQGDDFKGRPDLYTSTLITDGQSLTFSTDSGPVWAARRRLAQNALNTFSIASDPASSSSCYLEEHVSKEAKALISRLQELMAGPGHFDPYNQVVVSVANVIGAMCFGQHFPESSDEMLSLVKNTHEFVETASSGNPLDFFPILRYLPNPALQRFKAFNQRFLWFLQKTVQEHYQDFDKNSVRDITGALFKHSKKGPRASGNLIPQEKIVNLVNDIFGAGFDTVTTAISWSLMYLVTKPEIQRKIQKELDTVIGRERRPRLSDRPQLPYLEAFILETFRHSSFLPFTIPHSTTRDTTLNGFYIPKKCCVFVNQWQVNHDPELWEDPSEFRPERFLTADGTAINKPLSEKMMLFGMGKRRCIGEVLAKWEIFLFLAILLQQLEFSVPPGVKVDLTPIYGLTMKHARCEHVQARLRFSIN
- protocol-description: Cytochrome P450 Family 1 Subfamily A Member 2 (CYP1A2) small molecule antagonists: luciferase reporter qHTS assay (AID 1671199); further: nearly all actives have a fitted effect of over 50% in size; further: potency means the concentration at half of the fitted maximal effect
- assay-setup: P450-Glo CYP1A2 enzyme, luciferin luminescence, 1 h; series mostly up to 53 µM
Records with an inconclusive call do not appear. The source made the active and inactive calls. Calls come from the whole dose curve; as a rule, active = well fitted inhibition curve with a large enough effect in the repeat runs; inconclusive = weak or mixed curves; inactive = no such curve, though single readings can be large or run the other way.
readout-label: Potency

* CC(C(=O)O)c1cccc(Oc2ccccc2)c1 (centres undefined) | inactive
* CC(=O)O[C@@]12CO[C@@H]1C[C@H](O)[C@@]1(C)C(=O)[C@H](O)C3=C(C)[C@@H](OC(=O)[C@H](O)[C@@H](NC(=O)OC(C)(C)C)c4ccccc4)C[C@@](O)([C@@H](OC(=O)c4ccccc4)[C@H]21)C3(C)C | inactive
* CCOC(=O)COC(=O)c1ccccc1C(=O)OCC | 7.96 µM (active)
* CC(=O)Oc1cccc(C)c1 | inactive

---

- protocol-description: qHTS assay for identifying genotoxic compounds that show differential cytotoxicity against isogenic chicken DT40 cell lines with known DNA damage response pathways - Rad54/Ku70 mutant cell line (AID 743015); further: nearly all actives have a fitted effect of over 60% in size
- assay-setup: DT40 Rad54/Ku70 mutant viability, CellTiter-Glo, 40 h; series mostly up to 66.8 µM
Records with an inconclusive call do not appear. Activity calls are given as the source filed them. The call rests on the fitted dose curve; in most records, active means well fitted cell-killing curve with a large enough effect in the repeat runs; inconclusive means weak or mixed curves; inactive means no such curve, though single readings can be large or run the other way.
Pick one: t = active, f = inactive

Consider the worked cases shown below.
• Cc1c(N)c(=O)n(-c2ccccc2)n1C = f
• C=C(C)C(=O)OCC1CCCO1 (stereo not given) = f
• CC[C@H]1OC(=O)[C@H](C)[C@@H](O[C@H]2C[C@@](C)(OC)[C@@H](O)[C@H](C)O2)[C@H](C)[C@@H](O[C@@H]2O[C@H](C)C[C@H](N(C)C)[C@H]2O)[C@](C)(OC)C[C@@H](C)C(=O)[C@H](C)[C@@H](O)[C@]1(C)O = f
• CC(C)(C)C(=O)Oc1ccc(S(=O)(=O)Nc2ccccc2C(=O)NCC(=O)O)cc1 = f
• Nc1c2c(nc3c1CCC3)CCCC2 = f

Next up:
Incoming: Could you kindly confirm the outcome this assay logged for CO[Si](C)(OC)c1ccccc1 ?
Outgoing: f
